# target.or.system: Cannabinoid receptor 2 (Homo sapiens, UniProt P34972)
# Sequence (P34972 whole entry): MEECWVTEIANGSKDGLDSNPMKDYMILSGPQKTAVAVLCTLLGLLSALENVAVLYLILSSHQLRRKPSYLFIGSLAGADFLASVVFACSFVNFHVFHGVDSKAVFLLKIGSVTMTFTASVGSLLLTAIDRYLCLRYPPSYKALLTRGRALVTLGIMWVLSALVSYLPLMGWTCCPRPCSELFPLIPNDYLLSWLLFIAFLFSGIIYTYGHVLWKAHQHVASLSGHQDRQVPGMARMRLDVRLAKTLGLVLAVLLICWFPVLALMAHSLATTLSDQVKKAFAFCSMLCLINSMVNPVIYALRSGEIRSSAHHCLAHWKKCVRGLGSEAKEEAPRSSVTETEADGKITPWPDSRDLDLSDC
# method.notes: Agonist activity at human recombinant CB2R expressed in U2OS cells assessed as beta-arrestin-GFP binding to receptor […] by fluorescent microscopy
# Assay type: cell-based
measure: EC50
I'd appreciate it if you wrote the number followed by its unit.

Problem: Determine from records and report EC50 for CC1CCC(NC(=O)c2cc3cccnc3n(CCCCO)c2=O)CC1 (centres undefined)
Result: 23.7 nM

Problem: Tell me measured EC50 for CC1CCC(NC(=O)c2cc3cccnc3n(CCCCF)c2=O)CC1 (centres undefined) please.
Result: 21.8 nM

Problem: # return recorded EC50 for input CC1CCC(NC(=O)c2cc3cccnc3n(Cc3ccc(F)cc3)c2=O)CC1 (centres undefined)
Result: 29.6 nM

Problem: Output EC50 of CC1CCC(NC(=O)c2cc3cccnc3n(CCN3CCOCC3)c2=O)CC1 (centres undefined)
Result: 17.6 nM

* * *

# target.or.system: Cannabinoid receptor 2 (Homo sapiens, UniProt P34972)
# method.notes: Agonist activity at human recombinant CB2R expressed in […] U2OS cells assessed as reduction in forskolin-mediated cAMP level after 30 mins by time-resolved fluorescence assay
# Format: functional, cell-based
I'd appreciate it if you could supply pEC50 values for the items below.
Kindly note that pEC50 refers to -log10 of the concentration in mol/L and answer with the value alone.

Problem: Specify reported pEC50 for the molecule shown: CC1CCC(NC(=O)c2cc3cccnc3n(CCCCF)c2=O)CC1 (stereo not drawn)
Result: 7.69

Problem: Give the reported value of pEC50 for this record: CC1CCC(NC(=O)c2cc3cccnc3n(Cc3ccc(F)cc3)c2=O)CC1 (stereo not drawn)
Result: 7.53

Problem: Please look at this molecule and report its pEC50: CC1CCC(NC(=O)c2cc3cccnc3n(CCN3CCOCC3)c2=O)CC1 (stereo not drawn)
Result: 7.55

* * *

# target.or.system: Cannabinoid receptor 1 (Homo sapiens, UniProt P21554)
# Sequence (P21554 whole entry): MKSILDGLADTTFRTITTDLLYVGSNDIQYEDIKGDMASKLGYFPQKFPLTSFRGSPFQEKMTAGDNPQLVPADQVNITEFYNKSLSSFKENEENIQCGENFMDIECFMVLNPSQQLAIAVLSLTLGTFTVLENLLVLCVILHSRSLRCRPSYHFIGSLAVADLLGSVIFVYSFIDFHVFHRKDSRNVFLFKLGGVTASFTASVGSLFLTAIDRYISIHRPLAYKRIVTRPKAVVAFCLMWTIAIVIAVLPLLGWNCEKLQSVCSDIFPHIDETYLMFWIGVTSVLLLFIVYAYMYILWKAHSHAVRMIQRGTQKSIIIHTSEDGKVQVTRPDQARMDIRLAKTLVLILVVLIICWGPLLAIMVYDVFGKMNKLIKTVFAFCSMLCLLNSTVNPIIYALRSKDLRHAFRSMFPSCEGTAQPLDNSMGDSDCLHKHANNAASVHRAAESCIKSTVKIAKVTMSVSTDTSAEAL
# method.notes: Displacement of [3H]CP-55,940 from human recombinant CB1R expressed in HEK-293 cells after 90 mins by liquid scintillation counting
pKi: −log10 of the molar value.
Exercise: state measured pKi for each of the molecules provided.

Problem: Supply measured pKi of CC1CCC(NC(=O)c2cc3cccnc3n(CCCC(=O)O)c2=O)CC1 (stereo not given) in your reply.
Result: < 5.00

Problem: Give the measured pKi for CC1CCC(NC(=O)c2cc3cccnc3n(CCCCCO)c2=O)CC1 (stereo not given)
Result: < 5.00

Problem: Annotate the molecule CC1CCC(NC(=O)c2cc3cccnc3n(CCCCO)c2=O)CC1 (stereo not given) with its measured pKi.
Result: < 5.00

Problem: Report measured pKi; entry is C[C@H]1CC[C@H](NC(=O)c2cc3cc(-c4cccs4)cnc3n(Cc3ccc(F)cc3)c2=O)CC1
Result: 6.37

Problem: Item C[C@H]1CC[C@@H](NC(=O)c2cc3cc(-c4ccco4)cnc3n(Cc3ccc(F)cc3)c2=O)CC1 : provide pKi
Result: 5.39

Problem: Using known records, supply pKi for COc1ccc(-c2cnc3c(c2)cc(C(=O)NC2CCC(C)CC2)c(=O)n3CCN2CCOCC2)cc1 (stereo not given)
Result: < 5.00

Problem: Return reported pKi. Input molecule: COC(=O)CCCCn1c(=O)c(C(=O)NC2CCC(C)CC2)cc2cccnc21 (stereo not given)
Result: < 5.00

Problem: State its pKi for this molecule: CCOC(=O)CCCn1c(=O)c(C(=O)NC2CCC(C)CC2)cc2cccnc21 (stereo not given)
Result: < 5.00

Problem: Answer with reported pKi of CC1CCC(NC(=O)c2cc3cccnc3n(CCCCC(=O)O)c2=O)CC1 (stereo not given)
Result: < 5.00

Problem: Identify the reported pKi for the following entry. CC1CCC(NC(=O)c2cc3cc(-c4ccco4)cnc3n(CCN3CCOCC3)c2=O)CC1 (stereo not given)
Result: 7.28
